For each entry below, report its log10 vapour pressure (mmHg) value.
Give bare numbers.

molecule | log10 vapour pressure (mmHg)
Cc1cc(Cl)ccc1OCC(=O)O | -5.23

Look at each molecule and report its log10 vapour pressure (mmHg).
1. CCCCCCCCCOCCCCCCCCC
2. CCC(CC)C(C)C
3. Cc1ccc(N)cc1C
4. CCCCCCC1CCCCC1
5. O=C(Cl)Cc1ccccc1
6. C/C=C/Cl
7. CCCC(C)(C)CC
8. CCOC(=O)c1ccccc1

[-4.28, 1.38, -1.55, -0.943, -0.702, 2.71, 1.46, -0.574]

* * *

# run parameters: fish
For each entry below, report its log10 BCF value.
Give bare numbers.

Check out these entries, answers already filled in.
molecule | log10 BCF
O=C(O)c1cccc([N+](=O)[O-])c1C(=O)O | 0.72
CC(C)c1ccc(C(C)C)cc1 | 3.24
C[C@@H]1CCC[C@H](C)N1 | 0.7
CCN(CC)c1ccc2c(-c3ccccc3C(=O)O)c3ccc(N(CC)CC)cc3[o+]c2c1 | 0.23

Look at each molecule and report its log10 BCF.
1. C1CNCCN1
2. O=C(O)C1CC=CCC1C(=O)O (stereo not given)
3. CCOP(=S)(S)OCC
4. CN(C)c1ccccc1
5. O=Cc1ccc(Cl)cc1
6. CCCCCl
7. c1ccc2nc3ccccc3cc2c1
8. CC1(C)C(C=C(Cl)Cl)C1C(=O)OC(C#N)c1cccc(Oc2ccccc2)c1 (stereo not given)

[0.59, 0.3, 0.7, 0.9, 0.32, 1.23, 2.1, 2.53]

Look at each molecule and report its log10 BCF.
1. CCC(C)=NO
2. Oc1ccc(Cc2ccccc2)cc1
3. Clc1cc2c(c(Cl)c1Cl)Oc1c(cc(Cl)c(Cl)c1Cl)O2

1. 0.7
2. 1.33
3. 3.92

* * *

Rule: boiling point below 200 °C gives label 1, anything at or above gives label 0.

molecule | cat
C=CCNC | label 1

Criterion: boiling point strictly below 200 °C. Is it met by `Oc1ccc2cccc(Cl)c2c1` ?
label 0

One more molecule: `CCCOC(=O)c1ccccc1`
label 0

One more molecule: `CCC(=O)N(C)C`
label 1

One more molecule: CCCC(Cl)CCl (stereo unspecified)
label 1

* * *

Short version: melting point at least 100 °C is YES, less is NO.

molecule | cat
CCCNC(=O)NS(=O)(=O)c1ccc(Cl)cc1 | YES
Clc1ccc(-c2ccc(Cl)cc2)cc1 | YES
CC(=O)NN | NO
CC(C)=C(C)C | NO

Has `NC(=O)C#CC#CC#CCO` a recorded melting point greater than or equal to 100 °C?
YES

One more molecule: CC1(C)C(C(=O)OC(C#N)c2cccc(Oc3ccccc3)c2)C1(C)C (stereo unspecified)
NO

One more molecule: `CC(C)NC(=O)N1CC(=O)N(c2cc(Cl)cc(Cl)c2)C1=O`
YES

One more molecule: `C/C=C/c1cc2c(c(=O)o1)C(=O)[C@@H](O)[C@H](C)O2`
YES

One more molecule: `O=C(NCO)c1cccnc1`
YES

One more molecule: `COc1ccc(Cn2cncn2)cc1`
NO

One more molecule: `CCCCCCCCCCCCCCCCCC(=O)OCCCCC`
NO

One more molecule: `Oc1cccc(S)c1`
NO

One more molecule: `CCC=Cc1ccccc1`
NO

One more molecule: `Oc1nc(O)c2nccnc2n1`
YES

One more molecule: `CC(C)[N+](=O)[O-]`
NO

One more molecule: `OC(Cc1ccccc1)(c1ccccc1)c1ccccc1`
NO

One more molecule: `CC(=O)Nc1ccc(S(=O)(=O)Cl)cc1`
YES

One more molecule: `Cc1[nH]nc(Cl)c1[N+](=O)[O-]`
YES

One more molecule: `CCCCCCCCCCCCCC=O`
NO

One more molecule: `Cc1ccc(F)cc1`
NO

One more molecule: `CCCCNCC`
NO

* * *

For each entry below, report its log10 Koc (L/kg) value.
Numbers only.

compound | log10 Koc (L/kg)
CCCC(C)C(=O)Nc1ccc(C)c(Cl)c1 (stereo not drawn) | 2.76

Look at each compound and report its log10 Koc (L/kg).
1. CCOCN(C(=O)CCl)c1c(C)cccc1CC
2. BrC(Br)Br
3. Clc1cc(Cl)c(-c2cc(Cl)c(Cl)cc2Cl)cc1Cl
4. Nc1cccc(C(F)(F)F)c1
5. CC(C)(C)[C@@H](O)[C@@H](Cc1ccc(Cl)cc1)n1cncn1 (single isomer, unassigned)
6. CCOC(=O)C(SP(=S)(OC)OC)c1ccccc1 (stereo not drawn)
7. CCc1cccc2ccccc12

2.32
2.06
5.58
2.36
2.7
3
3.78

Look at each compound and report its log10 Koc (L/kg).
1. CCCOC(=O)NCCCN(C)C
2. CNc1cnn(-c2cccc(C(F)(F)F)c2)c(=O)c1Cl
3. Nc1ccc(Cc2ccc(N)cc2)cc1
4. Nc1ccc(Cl)c(Cl)c1Cl
5. CC(C)Oc1cc(-n2nc(C(C)(C)C)oc2=O)c(Cl)cc1Cl

1: 2.49; 2: 3.28; 3: 1.99; 4: 2.6; 5: 3.51

* * *

Classes are defined on melting point with ranges bin 0: < 9 °C; bin 1: ≥ 9 °C and < 80 °C; bin 2: ≥ 80 °C

compound | cat
CCO[Si](C)(C)OCC | bin 0
Oc1ccccc1-c1nc2ccccc2o1 | bin 2
C=C(C)C(C)(C)C | bin 0
ClC1(Cl)CCCCC1 | bin 0
Cc1ccccc1Oc1ccccc1 | bin 1
C#C[C@]1(O)CC[C@H]2[C@@H]3CCc4cc(OC5CCCC5)ccc4[C@H]3CC[C@@]21C | bin 2
CCc1cccc(-c2ccccc2)c1 | bin 0
CCCCOC(N)=O | bin 1
FC1CCCCC1 | bin 1
CN1CSC(=S)N(C)C1 | bin 2

Determine which band this compound sits in: `C=CCCCCCCC(=O)O`
bin 0

One more compound: `CC(C)(C)c1ccncc1`
bin 0

One more compound: `O=C(O)c1cc(Cl)c(Cl)c(Cl)c1Cl`
bin 2

* * *

result type: boiling point (°C)
One number for each entry, in °C.

Check out these entries, answers already filled in.
compound | boiling point, °C
CCOC(=O)[C@H](O)[C@@H](O)C(=O)OCC | 280
CCCCCCC(C)CCC (centres undefined) | 187

Look at each compound and report its boiling point.
1. CCCC(C)(C)C(C)(C)C
2. O=C1CCCCC1C1CCCCC1 (centres undefined)

160
264

Look at each compound and report its boiling point.
1. O=C(O)c1ccccc1-c1ccccc1
2. CCC=C(C)C=C(C)C
3. COCCOCCOC
4. C=C(Cl)C(Cl)CCl (centres undefined)
5. C=C1CCC1

1. 344
2. 138
3. 162
4. 155
5. 42.2

* * *

result type: boiling point (°C)
Numbers only, in °C.

molecule | result type | numeric readout
NCCN1CCNCC1 | boiling point | 220
CC[C@@H](C(=O)O)c1ccccc1 | boiling point | 271

Look at each molecule and report its boiling point.
1. FB(F)c1ccccc1
2. CCC(CC)COC(C)=O
3. Oc1cc(Cl)ccc1Cl
4. O=C(OC(Cl)(Cl)Cl)C(Cl)(Cl)Cl
5. CCCCCCOC
6. Ic1cccc(I)c1
7. N#CC(=O)c1ccccc1

[98, 162, 211, 192, 126, 285, 206]

Look at each molecule and report its boiling point.
1. Fc1ccc(F)c(F)c1F
2. C=C(c1ccccc1)c1ccccc1
3. CC[SiH2]CC
4. C=CCC(C)C(C)C (configuration not stated)
5. CCCCCCCCC(C)C
6. Cc1cccc([N+](=O)[O-])c1
7. Oc1ccc2ncccc2c1
8. OCc1cccc(Cl)c1

1. 94.3
2. 277
3. 57
4. 109
5. 189
6. 232
7. 360
8. 237

Look at each molecule and report its boiling point.
1. C#CC(C)(C)N
2. CC(C)C=CCl

79.5
87

* * *

Rule: melting point below 100 °C gives label 1, anything at or above gives label 0.

compound | cat
CCCCOC(=O)c1ccc([N+](=O)[O-])cc1 | label 1
Clc1cccc(-c2ccccc2)c1 | label 1
O=S(=O)(Cl)c1cccc2ccccc12 | label 1

Criterion: melting point strictly below 100 °C. Is it met by `COc1ccc2c(c1O)[C@]13CCN(C)[C@H](C2)[C@@H]1C=CC(=O)C3` ?
label 0

One more compound: `Clc1cccc2ncccc12`
label 1

One more compound: `CC1(C)[C@@H](O)CC[C@]2(C)[C@H]3C(=O)C=C4[C@@H]5C[C@@](C)(C(=O)O)CC[C@]5(C)CC[C@@]4(C)[C@]3(C)CC[C@@H]12`
label 0

One more compound: `CCCCCCCCCC`
label 1

One more compound: `O=C(O)c1cccc2cccc(Cl)c12`
label 0

One more compound: `CCCCCCCCCCCCCC(=O)OC`
label 1

One more compound: `CCCCCCCCCCC(=O)CC`
label 1

One more compound: `O=C1C=CC(=O)C=C1`
label 0

One more compound: COc1cc2c(c(O)c1OC)C(C)N(C)CC2 (stereo not given)
label 0

One more compound: `O=C(O)COc1c(F)c(F)c(F)c(F)c1F`
label 0

One more compound: `BrCCCCCBr`
label 1

One more compound: `OCCNC(=S)C(=S)NCCO`
label 1
